Here the recorded growth inhibition is given for each entry.
assay: NCI Yeast Anticancer Drug Screen. Data for the sgs1 mgt1 strain (AID 161);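 also: 0% = growth of cultures given vehicle only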; settings: S. cerevisiae sgs1 mgt1 strain, at 50.0 µM, hits give high values
This is part of a sample that, as a whole, favours compounds with a hit. Of some 79,000 tested, about 15% had one in any assay.
Write the value in % as a bare number.

Ask | Which growth inhibition is reported for this molecule? COc1ccc2nc3cc([N+](=O)[O-])ccc3c(NCCO)c2c1
Reply | 44.6

Next:
Ask | Quick check: growth inhibition of CC1=NN(c2nc(N)nc(NS(=O)(=O)c3cc(C)c(Cl)cc3S)n2)C(C)(C)C1 ?
Reply | 35.9

Ask | # get_value(readout='growth inhibition', item= Oc1c2c(c(O)c3ncccc13)C1C=CC2CC1 (stereo unspecified) )
Reply | 99.3

Ask | What does the record list as growth inhibition for O=C1/C(=C/c2ccccc2[N+](=O)[O-])COc2ccccc21 ?
Reply | 13.2

Ask | Looking for the measured growth inhibition of Cc1cc(Nc2ccc(N=Nc3ccc(O)c4ncccc34)cc2)nc(C)n1 , can you help?
Reply | 47.9

Ask | Endpoint output: growth inhibition of CCOC(=O)c1cc(C)ccc1-c1ccc(C)cc1C(=O)OCC . Value?
Reply | 77

Ask | I'd like to know its growth inhibition. The molecule in question is O=C1C=C(c2cccc(-c3ccccc3)c2)CCC1
Reply | 97.2

Ask | Reported growth inhibition, molecule O=C(CCBr)NC(=O)Oc1cccc2ccccc12 : ____
Reply | 91.3

Ask | # input molecule: CCOC(=O)/C(=C/O)c1c[nH]c2ccccc12 ; wanted: its growth inhibition
Reply | 96.8

Ask | Query (molecule): C1CCN(c2nc(N3CCOCC3)c3[nH]c(N4CCCCC4)nc3n2)CC1 ; field requested: growth inhibition
Reply | 46.4

Ask | I would be grateful if you could share the reported growth inhibition for O=C(/C=C/c1ccccc1)NOC(=O)/C=C/c1ccccc1 .
Reply | 98.9

----------
assay: NCI Yeast Anticancer Drug Screen. Data for the mlh1 rad18 strain (AID 175); conditions: S. cerevisiae mlh1 rad18 strain growth inhibition; at 5.0 µM (retest, dose inferred, filed as 0.5); hits give high values
This is part of a sample that, as a whole, favours compounds with a hit. Of some 79,000 tested, about 15% had one in any assay.
assayReadout: growth inhibition (%)
// note: answer is a bare numeric in %

Consider the reported growth inhibition for these compounds:
Ask | Query (compound): CCN1/C(=C/C(C)=C/c2sc3ccccc3[n+]2CC)Sc2ccccc21 ; field requested: growth inhibition
Reply | 98

Ask | Look up growth inhibition: C/C(=N\NC(=O)N/N=C(\C)c1ccccn1)c1ccccn1
Reply | 14

Ask | What value of measured growth inhibition is listed for N=C(N)c1ccc(-c2ccc(-c3ccc(C(=N)N)cc3)o2)cc1 ?
Reply | -10

Ask | Given the entry OCCCCCCCCCl , report its measured growth inhibition.
Reply | -1

Ask | Value lookup for growth inhibition; key = CCCCCNc1ccc2c(cc1=O)C(NC(C)=O)CCc1cc(OC)c(OC)c(OC)c1-2 (stereo unspecified)
Reply | 19

Ask | What measured growth inhibition goes with CCC(=O)N(CCC(C)C)c1ccccc1 ?
Reply | 3

Ask | Record request: growth inhibition value, item CCCCOc1ccc(CN2CCOC2=O)cc1
Reply | 0

Ask | Consider the compound O=C(c1ccc(Br)cc1)C1N=NCC1c1ccccc1 (stereo unspecified) and give its measured growth inhibition.
Reply | -4

Ask | Reported growth inhibition for CCCCCc1cc(C(=O)OC/C(C)=N/O)c2ccccc2n1 : what is it?
Reply | -6

Ask | Need growth inhibition, item Cc1cc([N+](=O)[O-])ccc1NC(=O)N(C)CCOC(=O)Nc1ccccc1
Reply | 64

---
Ask | Find the recorded growth inhibition belonging to O=c1[nH]c2cc(Cl)ccc2nc1/C=C(\O)c1ccc(N2CCN(c3ccc(/C(O)=C/c4nc5ccc(Cl)cc5[nH]c4=O)cc3)CC2)cc1 and report it.
Reply | -25

Ask | Which growth inhibition is listed for Cc1ccc(C2SCC(=O)N2c2ccc(-n3c(-c4ccccc4)nc4ccccc4c3=O)cc2)cc1 (stereo unspecified) ?
Reply | -8

Ask | Entry under review: CCCCNC(=O)OCCN=C1c2ccccc2C(Br)C(Br)c2ccccc21 (stereo unspecified) . Reported growth inhibition?
Reply | 13

Ask | Using the record for N#CSc1ccc(O)cc1 , report its growth inhibition.
Reply | 1

Ask | Which growth inhibition reading was recorded for the compound Cn1c2c(c3ccccc31)CCN(CCN1CCN(c3ccccc3)CC1)C2=O ?
Reply | 32

Ask | Recorded growth inhibition of Cc1nc(C(N)=S)sc1C(=O)CC(=O)C(=O)Nc1nc2ccccc2[nH]1 , please.
Reply | 12

Ask | # get_value(readout='growth inhibition', item= S=C(N/N=C(/c1ccccc1)c1ccccn1)N1CCCCC1 )
Reply | 83

Ask | Data request, read-out growth inhibition, for CCOC(=O)C1(Br)CCN(S(=O)(=O)c2ccc(C)cc2)c2ccccc2C1=O (stereo unspecified)
Reply | 18

Ask | # query: growth inhibition of entry CCC(C)(C)c1ccc(OCCO)c([N+](=O)[O-])c1
Reply | 29

Ask | Please look up its growth inhibition: O=C1O/C(=C\c2ccccc2)c2ccccc21
Reply | 2
